protocol details: viability loss in pontine glioma line – cell-based, SU-DIPG-XIII, MIPE5.0, CellTiter-Glo, qHTS, dose response (AID 1347064);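 for AC50: cells exposed to compound for 48 hours before the viability read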
condition details: CellTiter-Glo ATP luminescence
Inconclusive results are not listed. Active and inactive are the calls of the source. No cut-off is given here; in the data, nearly all actives have AC50 up to about 23 µM.
Mark one answer only. Choices: Yes (active), No (inactive)

As a guide, the following entries are already answered.
Cc1ccc(C(=O)Nc2cccc(C(F)(F)F)c2)cc1-c1ccc2nc(NCCN3CCOCC3)ncc2c1: Yes
CSC[C@H]1CN(Cc2c[nH]c3c(N)ncnc23)C[C@@H]1O: No
CCOC(=N)c1nc2ccc3ncnc(Nc4cc(F)c(F)cc4Cl)c3c2s1: Yes

Switching to the query record.
Task item: Returns: the outcome recorded for CC(C)c1noc(N2CCC(COc3ccc(-c4ccc(S(C)(=O)=O)cc4)nc3)CC2)n1 in this assay.
Reply: No

====

protocol details: viability loss in pontine glioma line – cell-based, JHH-DIPG-1, MIPE4.0, CellTiter-Glo, qHTS, dose response (AID 1347062);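 for AC50: cells exposed to compound for two days before readout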
condition details: JHH-DIPG-1 viability, CellTiter-Glo ATP luminescence
Inconclusive results are not listed. Active and inactive are the calls of the source. Cut-off not given; nearly all actives show AC50 up to about 27 µM.
measured property: AC50

O=C(Nc1nc2ccccc2n1CCN1CCOCC1)c1cccc([N+](=O)[O-])c1: 14.8 µM (active)
Cc1c(CN2CCN(C(=O)[C@H](C)O)CC2)sc2c(N3CCOCC3)nc(-c3cnc(N)nc3)nc12: 1.87 µM (active)
COc1cc2c(Oc3ccc(-c4cnc(Nc5ccc(F)cc5)n(C)c4=O)cc3F)ccnc2cc1OCCCN1CCOCC1: 18.7 µM (active)
CCOC(=O)N1CCN(/[N+]([O-])=N/Oc2ccc([N+](=O)[O-])cc2[N+](=O)[O-])CC1: 5.9 µM (active)
NC(N)=Nc1nc(CSCCC(N)=NS(N)(=O)=O)cs1: inactive
Cc1cc(Nc2cc(NC(=O)c3c(Cl)cccc3Cl)ccn2)nc(N)n1: 18.7 µM (active)
COc1cc2nc(-c3cc(F)ccc3O)nc(N[C@@H]3CNC[C@H]3C(C)(C)O)c2cc1OC: 10.5 µM (active)
CCOC(=O)N1CCN(/[N+]([O-])=N/Oc2cc(O/N=[N+](\[O-])N3CCN(C(=O)OCC)CC3)c([N+](=O)[O-])cc2[N+](=O)[O-])CC1: 9.35 µM (active)

Now consider a different compound.
// field: AC50; key: O=C(CCCCCCNC(=O)c1cnc(N(c2ccccc2)c2ccccc2)nc1)NO ; value = 7.43 µM (active)

====

The entries below come with measured remaining activity values attached.
System: Aerobactin synthetase IucA (Klebsiella pneumoniae)
protocol details: inhibition of K. pneumoniae IucA enzyme – biochemical, Tocris library, absorbance (AID 1345561);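 note: 100% = enzyme without compound and 0% = no enzyme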
condition details: purified IucA enzyme assay, absorbance (OD) read-out; stronger effect = lower value; concentration not given here
Form entry: value (%) — number only.

Consider the following illustrative entries.
O=C(Nc1c(-c2cccs2)nc2ccccn12)c1ccc(Cl)cc1: 108
Cc1cc(F)c(Nc2ncnc3cc(OCc4ccccc4)ccc23)cc1O: 105
COc1ccccc1N1CCN(CCN2C(=O)c3ccccc3C(C)(C)C2=O)CC1: 124
CC[C@H](CO)Nc1nc(Nc2cccc(-c3ccccn3)c2)c2ncn(C(C)C)c2n1: 119
O=C1C(=O)N(Cc2ccc(Cl)c(Cl)c2)c2ccccc21: 89.3

Query CC1=C(/C=C/C(=C/C=C/C(C)=C/C(=O)O)c2ccc(C)cc2)C(C)(C)CCC1 on Aerobactin synthetase IucA (Klebsiella pneumoniae); remaining activity returned: 105

Query O=C(O)COc1cccc(-c2ocnc2-c2nc(-c3ccccc3)c(-c3ccccc3)o2)c1 on Aerobactin synthetase IucA (Klebsiella pneumoniae); remaining activity returned: 118

Query CN(C)CCC1(c2ccc(Cl)cc2)Cc2ccccc2C(=O)O1 (stereo not given) on Aerobactin synthetase IucA (Klebsiella pneumoniae); remaining activity returned: 122

Query Cc1cc(Cn2cnc3c2C[C@@H](C(=O)O)N(C(=O)C(c2ccccc2)c2ccccc2)C3)ccc1N(C)C on Aerobactin synthetase IucA (Klebsiella pneumoniae); remaining activity returned: 122

Query O=[N+]([O-])c1cccc2c[nH]nc12 on Aerobactin synthetase IucA (Klebsiella pneumoniae); remaining activity returned: 110

Query COc1ccc2[nH]c(-c3ccccc3)c(CCNC(C)=O)c2c1 on Aerobactin synthetase IucA (Klebsiella pneumoniae); remaining activity returned: 99.3

Query O=[N+]([O-])c1ccccc1S(=O)(=O)NCC1CCC(CNCC2CCc3ccccc3C2)CC1 (stereo not given) on Aerobactin synthetase IucA (Klebsiella pneumoniae); remaining activity returned: 97.1

Query CC1(C)CCC(C)(C)c2cc(C3(c4ccc(C(=O)O)cc4)OCCO3)ccc21 on Aerobactin synthetase IucA (Klebsiella pneumoniae); remaining activity returned: 106

Query O=C(/C=C/c1ccccc1)NC(NC(=S)Nc1cccc2cccnc12)C(Cl)(Cl)Cl (stereo not given) on Aerobactin synthetase IucA (Klebsiella pneumoniae); remaining activity returned: 124

Query O=S(=O)(c1cccc2cnccc12)N1CCNCC1 on Aerobactin synthetase IucA (Klebsiella pneumoniae); remaining activity returned: 125

====

protocol details: JHH-DIPG-1 glioma cell viability, MIPE5.0 library, CellTiter-Glo luminescence, qHTS (AID 1347067);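 note: cells exposed to compound for 48 hours before readout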
condition details: JHH-DIPG-1 glioma viability, CellTiter-Glo ATP luminescence
Results filed as inconclusive are left out. Activity calls are given as the source filed them. Cut-off not given; nearly all actives show AC50 up to about 26 µM.
Mark one answer only. Choices: t for active, f for inactive

As a guide, the following entries are already answered.
CSC[C@H]1CN(Cc2c[nH]c3c(N)ncnc23)C[C@@H]1O: f
C[C@]1(c2nc3c(C(N)=O)cccc3[nH]2)CCCN1: f
Clc1cccc(-n2nnnc2NCc2ccccc2Oc2ccccn2)c1Cl: f

Switching to the query record.
Task item: Returns: the outcome recorded for CC(C)c1ccc(Cn2ccc3c4c(N)nc(NC5CC5)nc4ccc32)cc1 in this assay.
Reply: t

====

protocol details: viability loss with induced miR-34 in A549 – imaging, A549 dox-inducible miR-34, nuclei and caspase counts, primary screen (AID 1347080)
condition details: A549 miR-34 inducible, Hoechst nuclei count, 48 h; stronger effect = lower value; cell number ratio, induced over uninduced
measured property: fold change
Reply with the value as a number alone.

Consider the following illustrative entries.
COc1ccc(-n2c(C)c([N+](=O)[O-])c3ccc(O)cc32)cc1: 0.881
O=C(NNc1ccccc1)c1ccncc1: 0.922
CCCCCCCCCCCCCCP(=O)(O)O: 0.898
C[C@@H](O)CCC[C@H](O)/C=C/C1=C(C/C=C\CCCC(=O)O)C(=O)CC1: 0.915
N[C@@H](CSS(=O)(=O)O)C(=O)O: 0.893

// field: fold change; key: CC[C@H](CO)Nc1nc(NCc2ccccc2)c2ncn(C(C)C)c2n1 ; value = 0.923

// field: fold change; key: N[C@@H](C(=O)O)[C@@H](OCc1ccccc1)C(=O)O (racemic) ; value = 0.921

// field: fold change; key: N[C@H](C(=O)O)c1ccc(C(=O)O)c(C(=O)O)c1 ; value = 0.986

// field: fold change; key: CCCCC[C@H](O)/C=C/[C@H]1C2COC(C2)[C@@H]1C/C=C/CCCC(=O)O (some centres not stated) ; value = 0.903

// field: fold change; key: O=C(/C=C/c1ccc(/C=C/C(=O)Nc2ccc(C3=NCCN3)cc2)cc1)Nc1ccc(C2=NCCN2)cc1 ; value = 1.13

// field: fold change; key: CC/C=C\C/C=C\C/C=C\C/C=C\CCCCC(=O)OC ; value = 0.976

// field: fold change; key: CCCCCCCCCCCCCCCCC/C=C\C(=O)O ; value = 0.872

// field: fold change; key: Nc1ncnc2c1c(-c1cnc3[nH]ccc3c1)nn2C1CCCC1 ; value = 0.933

// field: fold change; key: CCCCCCCCCCCCCCCCOC[C@@H](O)COP(=O)(O)O ; value = 0.944

// field: fold change; key: CSc1nc(NC2CCCC2)c([N+](=O)[O-])c(NC2CCCC2)n1 ; value = 0.932

// field: fold change; key: CCC(O)/C=C/C=O (configuration not stated) ; value = 0.941

// field: fold change; key: COc1ccc(CN2C(=O)C(=O)c3cc(OC(F)(F)F)ccc32)cc1 ; value = 0.793

// field: fold change; key: O=C(O)CCC/C=C\C[C@H]1[C@@H](O)CC(=O)[C@@H]1/C=C/[C@@H](O)COc1cccc(C(F)(F)F)c1 ; value = 1.01

// field: fold change; key: CC(=O)N1CCN(CCOc2ccc(C3CCN(C4=Nn5c(nnc5C(F)(F)F)CC4)CC3)cc2)CC1 ; value = 0.859

====

protocol details: JHH-DIPG-1 glioma cell viability, MIPE5.0 library, CellTiter-Glo luminescence, qHTS (AID 1347067);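 note: cells exposed to compound for 48 hours before readout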
condition details: JHH-DIPG-1 glioma viability, CellTiter-Glo ATP luminescence
Inconclusive results are not listed. Activity calls are given as the source filed them. No cut-off is given here; in the data, nearly all actives have AC50 up to about 26 µM.
Mark one answer only. Choices: Y for active, N for inactive

As a guide, the following entries are already answered.
NS(=O)(=O)Oc1ccc2c3c(c(=O)oc2c1)CCCCC3: N
NC[C@H]1O[C@H](O[C@@H]2[C@H](O)[C@@H](O[C@H]3O[C@H](CO)[C@@H](O)[C@H](N)[C@H]3O)[C@H](N)C[C@@H]2N)[C@H](O)[C@@H](O)[C@@H]1O: N
COc1ccc(S(=O)(=O)N(CCO)c2ccccc2CN(C)C/C=C/c2ccc(Cl)cc2)cc1: Y

Task item: Returns: the outcome recorded for CN(C(=O)c1ccc(F)cc1C(F)(F)F)C1CCN(c2nnc(-c3ccnn3C)c3ccccc23)CC1 in this assay.
Reply: N

Task item: Returns: the outcome recorded for O=C1c2ccccc2-[n+]2ccc3c([nH]c4ccccc43)c21 in this assay.
Reply: Y
